// GI50 collected for U251 CNS

| molecule | GI50 |
| --- | --- |
| O=C(O)c1ccc(CN2CCC(CN[C@@H]3C[C@H]3c3ccccc3)CC2)cc1 | > 100 µM |
| CCC[CH2][Sn]([CH2]CCC)([O]C(=O)CN)[O]C(=O)CN | 26 µM |
| Cc1cc(Cl)ccc1OCC(=O)Nc1nc2c(Cl)cccc2s1 | 8.32 µM |
| CCN1C(=O)/C(=C/c2c(Cl)[nH]c3cc(C)c(OC)cc23)c2ccccc21 | 4.53 µM |
| O=C(Oc1ccc[nH]c1=O)c1cc([N+](=O)[O-])cc([N+](=O)[O-])c1 | > 100 µM |

Let's switch to this molecule now.
I looked up CCCC(C)c1ccc(OCCCCCCN2CCNCC2)cc1 (stereo unspecified) and its GI50 for U251 CNS was 1.57 µM

====

Exercise: for every item that follows, state its recorded TGI.
tested on: OVCAR-3 ovarian; experiment: NCI tumour cell line growth inhibition, 48 h
Give bare numbers, in µM.

| molecule | targetOfAssay | unitAbbrev | TGI |
| --- | --- | --- | --- |
| NC(CSC(c1ccccc1)(c1ccccc1)c1ccccc1)C(=O)NCC(=O)O (stereo not given) | OVCAR-3 ovarian | µM | 37.2 |

Let's switch to this molecule now.
Recorded TGI (molecule "COc1ccc2c(c1)C(=O)/C(=C/c1cccc(OCC(=O)c3ccccc3)c1)O2" ): 3.36

====

test system: HT29 colon; test: NCI tumour cell line growth inhibition, 48 h
Binary call on TGI: yes from 30 µM upward, no beneath that.

# count of solved cases: 4
| molecule | targetOfAssay | class |
| --- | --- | --- |
| NC(CSC(c1ccccc1)(c1ccccc1)c1ccccc1)C(=O)NCC(=O)O (stereo not given) | HT29 colon | yes |
| COC(=O)c1csc([C@@H](OC(=O)[C@H](C)[C@H](CCCC(C)(Cl)Cl)OC(=O)c2csc([C@H](O)CO)n2)C(C)C)n1 | HT29 colon | yes |
| O=C1N/C(=C\[N+](=O)[O-])c2ccccc21 | HT29 colon | yes |
| O=C1C=C(Nc2ccccc2C(=O)CC(=O)C(=O)Nc2cccc([N+](=O)[O-])c2)c2ccccc2C1=O | HT29 colon | yes |

Ask | # bool: TGI of "COC(=O)C(=O)CC(=O)CCn1[nH]c(=O)c(Cl)c(Cl)c1=O" >= 30 µM
Reply | yes

Ask | # bool: TGI of "COc1ccc2c(c1)C(=O)/C(=C/c1cccc(OCC(=O)c3ccccc3)c1)O2" >= 30 µM
Reply | no

Ask | # bool: TGI of "COc1ccc2nc(N/N=C/c3sccc3C)cc(C)c2c1" >= 30 µM
Reply | no

Ask | # bool: TGI of "Nc1n[nH]c2cccc(C#Cc3cccc(NC(=O)c4cccc(C(F)(F)F)c4)c3)c12" >= 30 µM
Reply | no

====

tested on: HL-60(TB) leukemia; assay: NCI tumour cell line growth inhibition, 48 h
valueKind: TGI

Solved cases (4 shown):
| molecule | valueKind | recordedMeasurement |
| --- | --- | --- |
| Cc1nc2ccc(Br)cc2c(=O)n1-c1nnc(C(C)(C)C)s1 | TGI | > 10 µM |
| CC1(O)C(C)(O)C2(C)O[Te]3(OC12C)OC1(C)C(C)(O)C(C)(O)C1(C)O3 (centres undefined) | TGI | 31.5 µM |
| Cc1cn(C2CC(OC(=O)c3ccc(Cl)cc3)C(COC(=O)c3ccc(Cl)cc3)O2)c(=O)[nH]c1=O (centres undefined) | TGI | > 100 µM |
| O=C(NC(=O)c1c(F)cccc1F)Nc1cccc(Oc2ncc(Cl)cn2)c1 | TGI | > 100 µM |

Would you mind giving TGI for every molecule in the list below?
1. CCCC1(CC(=O)O)OCCc2c1[nH]c1ccccc21 (centres undefined)
2. C=C(C)[C@@H]1CC[C@]2(COCCCN)CC[C@]3(C)[C@H](CC[C@@H]4[C@@](C)(CCCNCCCN)[C@H](C(=C)C)CC[C@]43C)[C@@H]12
3. C=C1C(=O)OC2/C=C(\C(=O)O)CC/C=C(\C)CC(OC(=O)/C=C(\C)CC)C12 (centres undefined)
4. N#C[S-].[La+3].c1cnc2c(c1)ccc1cccnc12.c1cnc2c(c1)ccc1cccnc12.c1cnc2c(c1)ccc1cccnc12
5. N#CSCC(Cl)=CCl (mixture of isomers)

Reply |
1: > 100 µM; 2: 3.47 µM; 3: > 100 µM; 4: 2.47 µM; 5: > 100 µM
